tested on: 299254-011-R-J1-PDC complex spheroid viability; experiment: Anticancer human tumor 299254-011-R-J1-PDC patient-derived melanoma cell line growth inhibition [POLQ]; conditions: second compound 0.1 µM; first compound 10 µM; active means viability on the fitted dose curve at most 10% of control; inactive means the rest;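 further: spheroids exposed to drugs for one week before measurement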
A correct response names exactly one class from active, inactive

Nc1ccn(C2OC(CO)C(O)C2(F)F)c(=O)n1 (stereo not given) + COC1C(OC(N)=O)C(O)C(Oc2ccc3c(O)c(NC(=O)c4ccc(O)c(CC=C(C)C)c4)c(=O)oc3c2C)OC1(C)C : inactive
CCCS(=O)(=O)Nc1ccc(F)c(C(=O)c2c[nH]c3ncc(-c4ccc(Cl)cc4)cc23)c1F + Cc1cccc(N(C)C(=O)C2C(O)CCN2c2nc(C)cc(C(F)(F)F)c2C#N)c1 : inactive
CCc1cc2c(N3CCc4c(cc(Cn5ccnc5)cc4-c4cn(C)nc4C(F)(F)F)C3=O)ccnc2c(OC)n1 + COC1C(OC(N)=O)C(O)C(Oc2ccc3c(O)c(NC(=O)c4ccc(O)c(CC=C(C)C)c4)c(=O)oc3c2C)OC1(C)C : inactive
COc1ccc([C@@H](O)c2cc(-c3ncnc4cc(N5CCOCC5)ccc34)c(F)cc2Cl)nn1 + Nc1ccc(C#CCN(C(=O)Cc2ncc(C(F)(F)F)cc2C(F)(F)F)c2ccc(F)cc2)nn1 : inactive
COc1cc(C2c3cc4c(cc3C(OC3OC5COC(C)OC5C(O)C3O)C3COC(=O)C23)OCO4)cc(OC)c1O (stereo not given) + Nc1ccc(C#CCN(C(=O)Cc2ncc(C(F)(F)F)cc2C(F)(F)F)c2ccc(F)cc2)nn1 : inactive

Name the outcome recorded for CCCS(=O)(=O)Nc1ccc(F)c(C(=O)c2c[nH]c3ncc(-c4ccc(Cl)cc4)cc23)c1F + Nc1ccc(C#CCN(C(=O)Cc2ncc(C(F)(F)F)cc2C(F)(F)F)c2ccc(F)cc2)nn1 in the assay.
inactive

Same for COc1cc2cc(C(=O)CCC(=O)O)sc2cc1OC + Nc1ccc(C#CCN(C(=O)Cc2ncc(C(F)(F)F)cc2C(F)(F)F)c2ccc(F)cc2)nn1
inactive

Same for CCc1cc2c(N3CCc4c(cc(Cn5ccnc5)cc4-c4cn(C)nc4C(F)(F)F)C3=O)cc(C)nc2c(OC)n1 + Nc1ccc(C#CCN(C(=O)Cc2ncc(C(F)(F)F)cc2C(F)(F)F)c2ccc(F)cc2)nn1
inactive

Same for CCCS(=O)(=O)Nc1ccc(F)c(C(=O)c2c[nH]c3ncc(-c4ccc(Cl)cc4)cc23)c1F + COC1C(OC(N)=O)C(O)C(Oc2ccc3c(O)c(NC(=O)c4ccc(O)c(CC=C(C)C)c4)c(=O)oc3c2C)OC1(C)C
inactive

Same for C#Cc1c(F)ccc2cc(O)cc(-c3ncc4c(N5CC6CCC(C5)N6)nc(OCC56CCCN5CC(F)C6)nc4c3F)c12 (stereo not given) + COC1C(OC(N)=O)C(O)C(Oc2ccc3c(O)c(NC(=O)c4ccc(O)c(CC=C(C)C)c4)c(=O)oc3c2C)OC1(C)C
inactive

Same for CC1COCCN1c1cc(-c2ccnn2C)c2ccnc(-c3ccn[nH]3)c2n1 (stereo not given) + Cc1cccc(N(C)C(=O)C2C(O)CCN2c2nc(C)cc(C(F)(F)F)c2C#N)c1
inactive

Same for CCc1cc2c(N3CCc4c(cc(Cn5ccnc5)cc4-c4cn(C)nc4C(F)(F)F)C3=O)cc(C)nc2c(OC)n1 + Cc1cccc(N(C)C(=O)C2C(O)CCN2c2nc(C)cc(C(F)(F)F)c2C#N)c1
inactive

Same for COc1cccc2c1C(=O)c1c(O)c3c(c(O)c1C2=O)CC(O)(C(=O)CO)CC3OC1CC(N)C(O)C(C)O1 (stereo not given) + COC1C(OC(N)=O)C(O)C(Oc2ccc3c(O)c(NC(=O)c4ccc(O)c(CC=C(C)C)c4)c(=O)oc3c2C)OC1(C)C
active

Same for C=CC(=O)N1CCN(c2nc(=O)n(-c3c(C)ccnc3C(C)C)c3nc(-c4c(O)cccc4F)c(F)cc23)C(C)C1 (stereo not given) + COC1C(OC(N)=O)C(O)C(Oc2ccc3c(O)c(NC(=O)c4ccc(O)c(CC=C(C)C)c4)c(=O)oc3c2C)OC1(C)C
inactive

Same for CNCc1ccc(-c2[nH]c3cc(F)cc4c3c2CCNC4=O)cc1 + COC1C(OC(N)=O)C(O)C(Oc2ccc3c(O)c(NC(=O)c4ccc(O)c(CC=C(C)C)c4)c(=O)oc3c2C)OC1(C)C
inactive

Same for CCc1cc2c(N3CCc4c(cc(Cn5ccnc5)cc4-c4cn(C)nc4C(F)(F)F)C3=O)ccnc2c(OC)n1 + Cc1cccc(N(C)C(=O)C2C(O)CCN2c2nc(C)cc(C(F)(F)F)c2C#N)c1
inactive

Same for CC(C)n1c(=O)n(C)c2cnc3cc(F)c(-c4ccc(OCCCN5CCCCC5)nc4)cc3c21 + COC1C(OC(N)=O)C(O)C(Oc2ccc3c(O)c(NC(=O)c4ccc(O)c(CC=C(C)C)c4)c(=O)oc3c2C)OC1(C)C
inactive

Same for O=c1[nH]cc(F)c(=O)[nH]1 + Cc1cccc(N(C)C(=O)C2C(O)CCN2c2nc(C)cc(C(F)(F)F)c2C#N)c1
inactive

Same for C#Cc1c(F)ccc2cc(O)cc(-c3ncc4c(N5CC6CCC(C5)N6)nc(OCC56CCCN5CC(F)C6)nc4c3F)c12 (stereo not given) + Nc1ccc(C#CCN(C(=O)Cc2ncc(C(F)(F)F)cc2C(F)(F)F)c2ccc(F)cc2)nn1
inactive

Same for Nc1ccn(C2OC(CO)C(O)C2(F)F)c(=O)n1 (stereo not given) + Cc1cccc(N(C)C(=O)C2C(O)CCN2c2nc(C)cc(C(F)(F)F)c2C#N)c1
inactive
